- Measured on: PCSK9 (Homo sapiens (Human), UniProt Q8NBP7)
- Sequence (Q8NBP7 153-692): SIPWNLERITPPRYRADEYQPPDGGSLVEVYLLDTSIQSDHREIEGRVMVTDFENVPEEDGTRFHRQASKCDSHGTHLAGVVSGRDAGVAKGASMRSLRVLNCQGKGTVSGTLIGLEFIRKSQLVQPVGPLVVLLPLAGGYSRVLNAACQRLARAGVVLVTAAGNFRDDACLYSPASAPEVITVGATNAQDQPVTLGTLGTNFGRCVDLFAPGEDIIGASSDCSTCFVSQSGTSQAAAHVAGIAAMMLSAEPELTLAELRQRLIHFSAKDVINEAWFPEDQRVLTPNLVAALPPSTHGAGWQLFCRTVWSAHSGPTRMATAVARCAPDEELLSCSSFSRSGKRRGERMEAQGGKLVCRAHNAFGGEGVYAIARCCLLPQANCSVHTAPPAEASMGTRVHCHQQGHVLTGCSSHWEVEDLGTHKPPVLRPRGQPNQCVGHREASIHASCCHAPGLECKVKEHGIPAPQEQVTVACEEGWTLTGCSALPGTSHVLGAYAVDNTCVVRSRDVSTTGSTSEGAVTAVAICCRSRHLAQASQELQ
- Protocol details: PCSK9 Alexa FRET Plus assay (displacement of AlexaFluor647 tagged cyclic peptide Reagent B)
- Format: binding
- Condition label: Alexa FRET Plus, 0.5 nM PCSK9, 960 nM AF cyclic peptide Reagent B; read-out: IC50
pIC50: −log10 of the molar value. Starred links: 1 amine or outer side, 2 acyl side, 3 side chain; linkers in the order of their positions; H or OH if unused. Positions of bridges follow the written chain, without caps; N, C: chain ends. Non-standard residues stand in square brackets, D forms with d. Residues, ends and D or L forms follow the SMILES beside them. Pro(cis-4-OPh) = O=C(O)[C@@H]1C[C@H](Oc2ccccc2)CN1; Trp(5-F) = N[C@@H](Cc1c[nH]c2ccc(F)cc12)C(=O)O; mXylylene = c1cc(C[*:1])cc(C[*:2])c1; Cha = N[C@@H](CC1CCCCC1)C(=O)O; αMeP = C[C@@]1(C(=O)O)CCCN1; hSer = N[C@@H](CCO)C(=O)O; Mpa = O=C(O)CCS
Readings of pIC50 for the listed compounds

Previously resolved entries follow.
NCCCC[C@@H]1NC(=O)CCSCc2cccc(c2)CSC[C@@H](C(N)=O)NC(=O)[C@@H]2C[C@H](Oc3ccccc3)CN2C(=O)[C@H](Cc2ccc(O)cc2)NC(=O)[C@H](Cc2cnc[nH]2)NC(=O)[C@H](CC(=O)O)NC(=O)[C@H](Cc2c[nH]c3ccc(F)cc23)NC(=O)[C@H](Cc2c[nH]c3ccc(F)cc23)NC(=O)CNC1=O [Compound 367] ([Mpa]KG[Trp(5-F)][Trp(5-F)]DHY[Pro(cis-4-OPh)]C-NH2; linker 1-10 via mXylylene) | 5.30 to 6.30
C[C@@]12CCCN1C(=O)[C@H](Cc1ccc(O)cc1)NC(=O)[C@H](Cc1cnc[nH]1)NC(=O)[C@H](CC(=O)O)NC(=O)[C@H](Cc1c[nH]c3ccc(F)cc13)NC(=O)[C@H](Cc1c[nH]c3ccc(F)cc13)NC(=O)CNC(=O)[C@H](CCO)NC(=O)CCSCc1cccc(c1)CSC[C@@H](C(N)=O)NC2=O [Compound 376] ([Mpa][hSer]G[Trp(5-F)][Trp(5-F)]DHY[αMeP]C-NH2; linker 1-10 via mXylylene) | 6.30 to 7.00
COc1ccc(C[C@@H]2NC(=O)[C@@H]3CCCCC(=O)N[C@H]4C[C@@H](C(=O)N3)N(C4)C(=O)[C@H](Cc3c[nH]c4ccc(F)cc34)NC(=O)[C@H](Cc3c[nH]c4ccc(F)cc34)NC(=O)[C@@H](C)NC(=O)[C@H](CCCN=[N+]=[N-])NC(=O)CCSCc3cccc(c3)CCSCNC(=O)[C@]3(C)CCCN3C2=O)cc1 | 7.00 to 10.00
NCCCC[C@@H]1NC(=O)CCSCc2cccc(c2)CSC[C@@H](C(N)=O)NC(=O)[C@@H]2CCCN2C(=O)[C@H](Cc2ccc(O)cc2)NC(=O)[C@H](Cc2c[nH]cn2)NC(=O)[C@H](CC(=O)O)NC(=O)[C@H](Cc2c[nH]c3ccc(F)cc23)NC(=O)[C@H](CC2CCCCC2)NC(=O)CNC1=O [Compound 223] ([Mpa]KG[Cha][Trp(5-F)]DHYPC-NH2; linker 1-10 via mXylylene) | 6.30 to 7.00
CC[C@H](C)[C@@H]1NC(=O)[C@@H]2CCCN2C(=O)[C@H](Cc2c[nH]c3ccc(F)cc23)NC(=O)[C@H](Cc2c[nH]c3ccc(F)cc23)NC(=O)[C@@H](C)NC(=O)[C@H](CCCCN)NC(=O)CCSCc2cccc(c2)CSC[C@@H](C(N)=O)NC(=O)[C@]2(C)CCCN2C(=O)[C@H](Cc2ccc(OC)cc2)NC1=O [Compound 007] ([Mpa]K[dA][Trp(5-F)][Trp(5-F)]PIY(Me)[αMeP]C-NH2; linker 1-10 via mXylylene) | 5.30 to 6.30

Fill in reported pIC50 for this entry: CC(=O)N[C@@H]1CCCC/C=C\CO[C@H]2C[C@@H](C(N)=O)N(C2)C(=O)[C@H](Cc2ccc(O)cc2)NC(=O)[C@H](Cc2cnc[nH]2)NC(=O)[C@H](CC(=O)O)NC(=O)[C@H](Cc2c[nH]c3ccc(F)cc23)NC(=O)[C@H](Cc2c[nH]c3ccc(F)cc23)NC(=O)CNC1=O
6.30 to 7.00
